Recorded values, source ChEMBL document CHEMBL5543140.

- assay explanation: Lipophilicity, logP of the compound
- Type: physicochemical
- run conditions: octanol/water
Measured logP accompanies every entry in the list below.
measurement label: logP

COc1cc(C(C)=O)c(OC)cc1CCN.Cl : 0.42
COc1cc(N(C(C)C)C(C)C)c(OC)cc1CCN.Cl.Cl : 2.7
COc1cc(P(C)(C)=O)c(OC)cc1CCN.Cl : -1.67
COc1cc(C(=O)C(C)(C)C)c(OC)cc1CCN : 2.34

---

- assay explanation: Cmax in mouse C57BL/6J brain at 3 mg/kg, sc measured after 2 hrs
- Type: ADME, organism-based
measurement label: Cmax (ng/g)

COc1cc([Se]C(F)(F)F)c(OC)cc1CCN.Cl : 3160
